Documented pIC50 across a set of compounds
# EXPERIMENTAL TARGET: rat NaP2b (SLC34A2) (Rattus norvegicus)
# Construct: host or cells: HEK293
# Sequence (Q9JJ09 1-695): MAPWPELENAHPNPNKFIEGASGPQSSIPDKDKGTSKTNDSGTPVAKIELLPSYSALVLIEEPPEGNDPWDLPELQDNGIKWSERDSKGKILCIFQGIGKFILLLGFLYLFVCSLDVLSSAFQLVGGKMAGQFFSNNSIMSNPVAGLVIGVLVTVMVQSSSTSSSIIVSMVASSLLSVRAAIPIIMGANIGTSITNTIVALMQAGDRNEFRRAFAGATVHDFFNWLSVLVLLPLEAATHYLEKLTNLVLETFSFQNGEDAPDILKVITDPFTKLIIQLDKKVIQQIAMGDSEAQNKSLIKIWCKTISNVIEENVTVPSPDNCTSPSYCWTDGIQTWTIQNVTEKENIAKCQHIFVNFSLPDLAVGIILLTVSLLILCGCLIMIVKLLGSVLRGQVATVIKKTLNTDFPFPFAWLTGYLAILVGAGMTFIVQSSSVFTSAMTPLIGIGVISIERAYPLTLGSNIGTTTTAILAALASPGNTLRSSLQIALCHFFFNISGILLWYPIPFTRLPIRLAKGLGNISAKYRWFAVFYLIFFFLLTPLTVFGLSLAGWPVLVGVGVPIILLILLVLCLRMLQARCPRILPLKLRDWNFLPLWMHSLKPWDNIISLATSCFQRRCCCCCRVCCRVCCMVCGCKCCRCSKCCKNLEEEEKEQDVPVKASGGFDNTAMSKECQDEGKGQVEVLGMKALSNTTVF
# TEST SUMMARY: Inhibition of NaP2b-mediated Pi (33P) uptake in transfected HEK293 cells, rat NaP2b
# Assay type: cell-based
# STATED CONDITIONS: 33P Pi uptake, 0.1 mM phosphate, value given as pIC50 range
pIC50: −log10 of the molar value.

Q: Given the compound O=C(O)c1cccc(CSc2cccc(C(=O)Nc3ccc(N4CCCCC4)cc3-c3cc(C(=O)NCc4cccc(C(F)(F)F)c4)ccn3)c2)c1 [Example 186] , what is its reported pIC50?
Result: 5.10 to 6.00

----------
# EXPERIMENTAL TARGET: human NaP2b (SLC34A2) (Homo sapiens, UniProt O95436)
# Construct: host or cells: HEK293
# Sequence (O95436 whole entry): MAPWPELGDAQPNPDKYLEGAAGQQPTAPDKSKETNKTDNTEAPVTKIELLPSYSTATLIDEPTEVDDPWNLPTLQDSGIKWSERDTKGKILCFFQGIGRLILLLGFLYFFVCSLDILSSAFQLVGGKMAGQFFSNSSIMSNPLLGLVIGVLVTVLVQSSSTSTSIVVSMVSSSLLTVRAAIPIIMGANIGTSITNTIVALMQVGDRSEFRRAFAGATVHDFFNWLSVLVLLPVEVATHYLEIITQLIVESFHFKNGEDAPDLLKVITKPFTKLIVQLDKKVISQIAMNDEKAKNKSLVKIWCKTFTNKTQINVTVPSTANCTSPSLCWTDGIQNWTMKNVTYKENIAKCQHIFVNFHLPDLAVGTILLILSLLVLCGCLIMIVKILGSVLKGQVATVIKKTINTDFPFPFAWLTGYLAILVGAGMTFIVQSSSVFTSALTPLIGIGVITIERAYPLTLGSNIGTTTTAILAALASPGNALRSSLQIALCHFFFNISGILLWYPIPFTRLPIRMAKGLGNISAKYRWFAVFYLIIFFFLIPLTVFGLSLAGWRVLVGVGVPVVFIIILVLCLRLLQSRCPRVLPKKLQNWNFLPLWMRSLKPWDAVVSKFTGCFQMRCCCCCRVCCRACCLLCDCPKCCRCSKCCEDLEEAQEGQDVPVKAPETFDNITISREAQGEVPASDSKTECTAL
# TEST SUMMARY: Inhibition of NaP2b-mediated Pi (33P) uptake in transfected HEK293 cells, human NaP2b
# Assay type: cell-based
# STATED CONDITIONS: read-out: pIC50 range for human NaP2b (converted)
# Experimental: HEK293 cells were obtained from the American Type Culture collection and propagated per their instructions. […] After incubation for 3-30 minutes at room temperature, assay mixtures were removed, and the cells were washed twice with ice cold stop solution (137 mM sodium chloride, 14 mM Tris, pH 7.4). Cells were lysed by addition of 20 μL 0.1% Tween 80 followed by 100 μL scintillation fluid, and counted using a TopCount (Perkin Elmer). […]
Documented IC50 across a set of compounds

Q: Given the compound O=C(O)c1cccc(SCc2cccc(C(=O)Nc3ccc(Cl)cc3-c3cc(C(=O)NCc4cccc(C(F)(F)F)c4)ccn3)c2)c1 , what is its reported IC50?
Result: < 1000 nM

Q: Given the compound CCN(CC)c1ccc(NC(=O)c2cccc(CCCOCCOCCOCCOCCOCCOCCOCCOCCOC)c2)c(-c2cc(C(=O)N[C@H]3CCCc4ccccc43)ccn2)c1 , what is its reported IC50?
Result: < 1000 nM

Q: Given the compound CCN(CC)c1ccc(NC(=O)c2cccc(CCCOCCOCCOCCOCCNS(=O)(=O)c3cccc(C(=O)O)c3)c2)c(-c2cc(C(=O)NCc3cccc(C(F)(F)F)c3)ccn2)c1 , what is its reported IC50?
Result: 1000 to 7940 nM

Q: Given the compound CCN(CC)c1ccc(NC(=O)c2cccc(CCCOCCOCCOCCOCCOCCOCCC(=O)O)c2)c(-c2cc(C(=O)NCc3cccc(C(F)(F)F)c3)ccn2)c1 , what is its reported IC50?
Result: < 1000 nM

Q: Given the compound CN(CCOCCOCCOCCC(=O)O)C(=O)Cc1cccc(SCc2cccc(C(=O)Nc3ccc(Cl)cc3-c3cc(C(=O)N[C@H]4CCCc5ccccc54)ccn3)c2)c1 , what is its reported IC50?
Result: < 1000 nM
